# System: HCT-116 cells
# METHOD DESCRIPTION: MTT antiproliferative assay, HCT-116
# Format: cell-based, human
# MEASUREMENT PARAMETERS: Homo sapiens, HCT-116, HCT116, 100 µM, mean ± SEM of three experiments, read-out: % Growth inhibition HCT116 100 µM
# Procedure: Encouraged by the favourable selectivity profile of ureidocoumarins 5a–p and amidocoumarins 7a–c towards hCA IX and hCA XII, they were further examined for their prospective antiproliferative activity against human colorectal (HCT-116) and breast (MCF-7) cancer cell lines, adopting the MTT assay. The evaluation of anticancer activity of the target compounds was conducted by MTT assay adopting the literature procedure.
MEASURE NAME: inhibition at 100 µM (%)
Note: unit % is implicit; provide only the numeric part.

Please look up its inhibition at 100 µM: O=C(Nc1ccc2oc(=O)ccc2c1)c1ccc(Cl)c(C(F)(F)F)c1 42.2

Let us now turn to Cc1cc(Cl)ccc1NC(=O)Nc1ccc2oc(=O)ccc2c1 20.5

What would you report for O=C(Nc1ccc(Cl)c(C(F)(F)F)c1)Nc1ccc2oc(=O)ccc2c1 ? 90.5

Follow-up entry: O=C(Nc1ccc2oc(=O)ccc2c1)Nc1ccc(F)cc1F 26.1

Can you handle CCCCc1ccc(NC(=O)Nc2ccc3oc(=O)ccc3c2)cc1 next? 65

Would you kindly repeat that for O=C(Nc1ccc2oc(=O)ccc2c1)Nc1ccc(Cl)cc1Cl ? 6.7

And for O=C(Nc1ccc(Br)cc1)Nc1ccc2oc(=O)ccc2c1 ? 31.7

Could you do the same for O=C(Nc1cccc(C(F)(F)F)c1)Nc1ccc2oc(=O)ccc2c1 , please? 21.9

Please answer likewise for Cc1cc(C)cc(NC(=O)Nc2ccc3oc(=O)ccc3c2)c1 87.4

Can you check O=C(Nc1ccc2oc(=O)ccc2c1)Nc1c(Br)cc(F)cc1Br next? 75.2

Try O=C(Nc1cc(Cl)cc(Cl)c1)Nc1ccc2oc(=O)ccc2c1 next. 91.9

Now consider CCCCOc1ccc(NC(=O)Nc2ccc3oc(=O)ccc3c2)cc1 and answer again. 67.7

// repeat for O=C(Nc1ccc(C(F)(F)F)cc1)Nc1ccc2oc(=O)ccc2c1 and report 77

Item: Cc1cccc(Cl)c1NC(=O)Nc1ccc2oc(=O)ccc2c1 78.6

Try O=C(Nc1ccc2oc(=O)ccc2c1)c1cc(F)cc(F)c1 next. 52

And then O=C(Nc1ccc(F)c(Cl)c1)Nc1ccc2oc(=O)ccc2c1 , what is it? 92.3

Entry to check: O=C(Nc1ccc2oc(=O)ccc2c1)c1cc(C(F)(F)F)cc(C(F)(F)F)c1 76

Record: O=C(Nc1ccc(F)cc1)Nc1ccc2oc(=O)ccc2c1 31.3

Origin of the recorded values: paper PMC9897768
